- Target of assay: wt human JAK1, catalytic site (Homo sapiens)
- Construct: wt human JAK1, catalytic site
- Sequence (P23458 875-1153 limits assumed): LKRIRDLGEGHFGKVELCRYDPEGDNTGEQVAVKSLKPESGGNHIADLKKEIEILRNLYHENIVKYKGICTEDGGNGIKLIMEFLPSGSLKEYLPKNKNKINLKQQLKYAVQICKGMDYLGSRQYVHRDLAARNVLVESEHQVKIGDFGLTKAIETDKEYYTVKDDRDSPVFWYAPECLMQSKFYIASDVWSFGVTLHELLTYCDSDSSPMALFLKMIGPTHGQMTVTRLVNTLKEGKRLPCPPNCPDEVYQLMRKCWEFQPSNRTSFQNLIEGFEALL
- Assay summary: HTRF KinEASE assay, JAK1
- Setup conditions: 2.5 μM ATP; read-out: IC50, Activity Toward JAK1
Field: IC50. Provide a value for each of the compounds that follow.

Example entries and their recorded answers appear below.
Record for Cc1nc2cc(Nc3cn(-c4c(Cl)cccc4Cl)nc3C(N)=O)ccc2n1C [compound 43] under target or system wt human JAK1, catalytic site (Homo sapiens): IC50 reported as 100 to 1000 nM

Record for CP(C)(=O)c1ccc(Nc2cn(-c3c(F)cccc3F)nc2C(N)=O)cc1 [compound 64] under target or system wt human JAK1, catalytic site (Homo sapiens): IC50 reported as 100 to 1000 nM

Record for Cn1nnnc1-c1ccc(Nc2cn(-c3c(Cl)cccc3Cl)nc2C(N)=O)cc1 [compound 238] under target or system wt human JAK1, catalytic site (Homo sapiens): IC50 reported as 10 to 100 nM

Value sought for every listed compound: IC50.
1. CC1(C)CN(C(=O)c2ccc(Nc3cn(-c4c(Cl)cccc4Cl)nc3C(N)=O)cc2)C1 [compound 456]
2. NC(=O)c1nn(-c2c(Cl)cccc2Cl)nc1Nc1cnn(CC(=O)N2CCS(=O)(=O)CC2)c1 [compound 174]
3. Cn1ccnc1-c1ccc(Nc2cn(-c3c(Cl)cccc3Cl)nc2C(N)=O)cc1 [compound 225]
4. Cc1cnccc1-c1ccc(Nc2cn(-c3c(Cl)cccc3Cl)nc2C(N)=O)cc1 [compound 260]
5. CN1CCN(C(=O)c2ccc(Nc3cn(-c4c(Cl)cccc4Cl)nc3C(N)=O)cn2)CC1 [compound 363]
6. CN1CCCN(C(=O)c2ccc(Nc3nn(-c4c(Cl)cccc4Cl)nc3C(N)=O)nc2)CC1 [compound 150]
7. Cn1nc(C(F)(F)F)nc1-c1ccc(Nc2cn(-c3c(Cl)cccc3Cl)nc2C(N)=O)cc1 [compound 215]
8. Cn1ccc(Oc2ccc(Nc3cn(-c4c(Cl)cccc4Cl)nc3C(N)=O)cc2)n1 [compound 78]

Output:
1: 10 to 100 nM; 2: < 10 nM; 3: 10 to 100 nM; 4: 10 to 100 nM; 5: 100 to 1000 nM; 6: 10 to 100 nM; 7: 10 to 100 nM; 8: 100 to 1000 nM

Value sought for every listed compound: IC50.
1. NC(=O)c1nn(-c2c(Cl)cccc2Cl)cc1Nc1ccc(CC(=O)N2CC(F)C2)nc1 [compound 441]
2. NC(=O)c1nn(-c2c(Cl)cccc2Cl)cc1Nc1ccc(C(=O)N2CC(F)C2)cc1 [compound 425]
3. CCS(=O)(=O)Nc1ccc(Nc2cn(-c3c(Cl)cccc3Cl)nc2C(N)=O)cc1 [compound 270]
4. Cn1cc(C(F)(F)F)nc1-c1ccc(Nc2nn(-c3c(Cl)cccc3Cl)nc2C(N)=O)cc1 [compound 115]
5. Cc1nn(-c2ccc(Nc3cn(-c4c(Cl)cccc4Cl)nc3C(N)=O)cc2)c(C)c1C [compound 224]
6. NC(=O)c1nn(-c2c(Cl)cccc2Cl)nc1Nc1ccc(C(=O)N2CCC(F)C2)cn1 (stereo in doubt) [compound 130]
7. CCn1cnnc1-c1ccc(Nc2cn(-c3c(Cl)cc(F)cc3Cl)nc2C(N)=O)cc1 [compound 414]
8. CC(C)c1ccn(-c2ccc(Nc3cn(-c4c(Cl)cccc4Cl)nc3C(N)=O)cc2)n1 [compound 263]

Output:
1: 100 to 1000 nM; 2: 10 to 100 nM; 3: 10 to 100 nM; 4: 100 to 1000 nM; 5: 100 to 1000 nM; 6: 100 to 1000 nM; 7: 10 to 100 nM; 8: 100 to 1000 nM

Value sought for every listed compound: IC50.
1. CCn1ncnc1-c1ccc(Nc2nn(-c3c(Cl)cccc3Cl)nc2C(N)=O)nc1 [compound 142]
2. NC(=O)c1nn(-c2c(F)cccc2F)cc1Nc1ccc(C(=O)N2CCOCC2)cc1 [compound 12]

Output:
["10 to 100 nM", "100 to 1000 nM"]

Value sought for every listed compound: IC50.
1. COC(=O)Cn1cc(Nc2cn(-c3c(Cl)cccc3Cl)nc2C(N)=O)cn1 [compound 462]
2. Cn1c(-c2ccc(Nc3cn(-c4c(Cl)cccc4Cl)nc3C(N)=O)cc2)nnc1C(F)(F)F [compound 242]
3. CN(C)C1CCN(C(=O)c2ccc(Nc3nn(-c4c(Cl)cccc4Cl)nc3C(N)=O)nc2)CC1 [compound 149]
4. CN(C)CCn1cnnc1-c1ccc(Nc2cn(-c3c(Cl)cccc3Cl)nc2C(N)=O)cc1 [compound 214]
5. NC(=O)c1nn(-c2c(Cl)cccc2Cl)cc1Nc1ccc(N2CCOCC2)cn1 [compound 428]
6. Cn1ncnc1-c1ccc(Nc2cn(-c3c(Cl)cccc3Cl)nc2C(N)=O)cc1 [compound 96]
7. NC(=O)c1nn(-c2c(Cl)cccc2Cl)cc1Nc1ccc(-n2ccccc2=O)nc1 [compound 390]

Output:
1: 10 to 100 nM; 2: 10 to 100 nM; 3: < 10 nM; 4: 10 to 100 nM; 5: 100 to 1000 nM; 6: 10 to 100 nM; 7: 100 to 1000 nM

Value sought for every listed compound: IC50.
1. CN1CCC(NS(=O)(=O)c2ccc(Nc3cn(-c4c(Cl)cccc4Cl)nc3C(N)=O)cc2)CC1 [compound 89]
2. CS(=O)(=O)n1cc(Nc2nn(-c3c(Cl)cccc3Cl)nc2C(N)=O)cn1 [Compound No. 172]
3. Cn1nnnc1-c1ccc(Nc2cn(-c3c(Cl)cccc3Cl)nc2C(N)=O)cn1 [compound 375]
4. CN(C)C1CCN(C(=O)c2ccc(Nc3nn(-c4c(Cl)cccc4Cl)nc3C(N)=O)cc2)CC1 [compound 122]

Output:
["100 to 1000 nM", "100 to 1000 nM", "100 to 1000 nM", "10 to 100 nM"]

---

Field: IC50. Provide a value for each of the molecules that follow.
- Target of assay: wt human JAK1, catalytic site (Homo sapiens)
- Construct: wt human JAK1, catalytic site
- Assay summary: HTRF KinEASE assay, JAK1
- Setup conditions: 2.5 μM ATP; read-out: IC50, Activity Toward JAK1

Value sought for every listed molecule: IC50.
1. CC(C)n1cc(Nc2cn(-c3c(Cl)cccc3Cl)nc2C(N)=O)cn1
2. NC(=O)c1nn(-c2c(Cl)cccc2Cl)cc1Nc1ccc(C(=O)N2CCC(N)C2)cc1 (centres unmarked)
3. NC(=O)c1nn(-c2c(Cl)cccc2Cl)cc1Nc1ccc(C(=O)NC2CCCNC2)cc1 (centres unmarked)
4. CC(C)(C)C(=O)c1ccc(Nc2cn(-c3c(F)cccc3Cl)nc2C(N)=O)cc1
5. COCCn1cc(C(F)(F)F)nc1-c1ccc(Nc2cn(-c3c(Cl)cccc3Cl)nc2C(N)=O)cc1
6. Cc1cncc2nnc(-c3ccc(Nc4nn(-c5c(Cl)cccc5Cl)nc4C(N)=O)cn3)n12

Output:
1. 100 to 1000 nM
2. 10 to 100 nM
3. 10 to 100 nM
4. < 10 nM
5. 100 to 1000 nM
6. 10 to 100 nM

Value sought for every listed molecule: IC50.
1. NC(=O)c1nn(-c2c(Cl)cccc2Cl)cc1Nc1ccc(N2CCCCC2=O)nc1
2. Cc1c[n+]([O-])ccc1-c1ccc(Nc2cn(-c3c(Cl)cccc3Cl)nc2C(N)=O)cc1

Output:
1. 100 to 1000 nM
2. 10 to 100 nM

---

Field: IC50. Provide a value for each of the molecules that follow.
- Target of assay: wt human JAK1, catalytic site (Homo sapiens)
- Construct: wt human JAK1, catalytic site
- Assay summary: HTRF KinEASE assay, JAK1
- Setup conditions: 2.5 μM ATP; read-out: IC50, Activity Toward JAK1

Example entries and their recorded answers appear below.
Recorded IC50 (molecule "NC(=O)c1nn(-c2c(Cl)cccc2Cl)cc1Nc1cnn(CC(=O)N2CCS(=O)(=O)CC2)c1" ): 10 to 100 nM

Recorded IC50 (molecule "NC(=O)c1nn(-c2c(Cl)cccc2Cl)nc1Nc1ccc(-n2nncc2C(F)(F)F)cc1" ): 10 to 100 nM

Recorded IC50 (molecule "CN1CCC(Oc2ccc(Nc3cn(-c4c(Cl)cccc4Cl)nc3C(N)=O)cn2)CC1" ): 100 to 1000 nM

Value sought for every listed molecule: IC50.
1. Cc1cnnn1-c1ccc(Nc2nn(-c3c(Cl)cccc3Cl)nc2C(N)=O)cc1
2. NC(=O)c1nn(-c2c(Cl)cccc2Cl)cc1Nc1ccc(C(=O)N2CCC2)cc1
3. COCCn1cc(C(F)(F)F)nc1-c1ccc(Nc2nn(-c3c(Cl)cccc3Cl)nc2C(N)=O)cc1
4. NC(=O)c1nn(-c2c(Cl)cccc2Cl)cc1Nc1ccc(-c2nnc3cncc(Cl)n23)nc1
5. CN1CCC(Oc2ccc(Nc3cn(-c4c(F)cccc4Cl)nc3C(N)=O)cc2)CC1

Output:
1. 10 to 100 nM
2. 10 to 100 nM
3. 10 to 100 nM
4. 10 to 100 nM
5. 10 to 100 nM
